Source listed as the supplement of paper PMC4022240.

- Assayed target: anti-H3K9me3 antibody ab8898
- Assay remarks: peptide microarray binding signal (635 nm), min-max normalized on array (fraction of array maximum); higher = stronger binding
- Setup conditions: peptide region: Unmod H2A variant; binder concentration: 1:2,000 dilution
Recorded metric: peptide microarray binding signal
Respond using a number only.

Kindly indicate its recorded peptide microarray binding signal. Item: KGNYAERIGAGAP [Unmod H2A variant K G N Y A E R I G A G A P]
0.00542

Kindly indicate its recorded peptide microarray binding signal. Item: RAKAKTRSSRAGL [Unmod H2A variant R A K A K T R S S R A G L]
0.000966

Kindly indicate its recorded peptide microarray binding signal. Item: RNDEELNKLLGGV [Unmod H2A variant R N D E E L N K L L G G V]
0.0018

Kindly indicate its recorded peptide microarray binding signal. Item: ILELAGNASRDNK [Unmod H2A variant I L E L A G N A S R D N K]
0.00523
